assay: Compound cytotoxicity, XTT-based colorimetric assay
Assay type: cell-based
reported-conditions: human; uninfected MT2 cells, day 4, XTT assay
reported-endpoint: CC50 at 4 days

Example results:
compound: C[C@@H](Oc1ccc2c(=O)n(-c3ccc(Cl)c4c(NS(C)(=O)=O)nn(C)c34)c([C@H](Cc3cc(F)cc(F)c3)NC(=O)Cn3nc(C(F)F)c4c3C(F)(F)[C@@H]3C[C@H]43)nc2n1)C1CCCC1 (atropisomer, axis not shown; (P)) [Example 16]
reported-endpoint: CC50 at 4 days
measured: > 500 nM

compound: Cn1nc(NS(C)(=O)=O)c2c(Cl)ccc(-n3c([C@H](Cc4cc(F)cc(F)c4)NC(=O)Cn4nc(C(F)F)c5c4C(F)(F)[C@@H]4C[C@H]54)nc4nc(OCCN5CCS(=O)(=O)CC5)ccc4c3=O)c21 (atropisomer, axis not shown; (P)) [Example 7]
reported-endpoint: CC50 at 4 days
measured: > 1000 nM

compound: Cn1nc(NS(C)(=O)=O)c2c(Cl)ccc(-n3c([C@H](Cc4cc(F)cc(F)c4)NC(=O)Cn4nc(C(F)F)c5c4C(F)(F)[C@@H]4C[C@H]54)nc4nc(OCc5ccccn5)ccc4c3=O)c21 (atropisomer, axis not shown; (P)) [Example 30]
reported-endpoint: CC50 at 4 days
measured: > 100 nM

Form field CC50 at 4 days, entry Cn1nc(NS(C)(=O)=O)c2c(Cl)ccc(-n3c([C@H](Cc4cc(F)cc(F)c4)NC(=O)Cn4nc(C(F)F)c5c4C(F)(F)[C@@H]4C[C@H]54)nc4nc(O)ccc4c3=O)c21 (atropisomer, axis not shown; (P)) [Example 1] : > 1000 nM
